Target: ALDH1A2 (Homo sapiens)
Construct: His-tag; made in house; host or cells: E. coli Rosetta (DE3)
Sequence (O94788 1-518): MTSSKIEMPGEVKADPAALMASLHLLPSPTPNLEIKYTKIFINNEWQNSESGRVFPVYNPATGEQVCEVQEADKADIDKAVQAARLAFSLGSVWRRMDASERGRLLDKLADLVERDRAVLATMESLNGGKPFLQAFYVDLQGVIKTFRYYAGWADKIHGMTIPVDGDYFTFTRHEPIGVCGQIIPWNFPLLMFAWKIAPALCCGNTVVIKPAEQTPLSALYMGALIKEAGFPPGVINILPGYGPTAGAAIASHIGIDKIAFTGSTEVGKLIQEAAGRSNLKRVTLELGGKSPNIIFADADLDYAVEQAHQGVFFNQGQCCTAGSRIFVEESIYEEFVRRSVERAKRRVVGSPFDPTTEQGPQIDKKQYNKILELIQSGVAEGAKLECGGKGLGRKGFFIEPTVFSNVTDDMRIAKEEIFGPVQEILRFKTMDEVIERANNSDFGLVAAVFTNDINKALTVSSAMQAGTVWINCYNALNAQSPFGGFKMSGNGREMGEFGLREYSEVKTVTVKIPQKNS
Test: Selectivity biochemical assay, NAD(P)H-Glo Detection System
pIC50: −log10 of the molar value.
recorded endpoint: pIC50

1) O=C1CCc2cc(NC(=O)c3sccc3-c3cccc(F)c3)ccc2N1 [ALDHI-1022]: 5.00 to 6.00
2) O=C1CCc2cc(OCCN3CCC[C@@H]3c3cccc(F)c3)ccc2N1 [ALDHI-2007]: 6.00 to 7.00
3) O=C1CCc2cc(NC(=O)c3scnc3-c3ccccc3F)ccc2N1 [ALDHI-1021]: 5.00 to 6.00
4) O=C1CCc2cc(OCCN3CCCC3c3ccccc3F)ccc2N1 (centres unmarked) [ALDHI-2002]: 4.00 to 5.00
5) O=C1CCc2cc(NC(=O)c3scnc3-c3cccs3)ccc2N1 [ALDHI-1023]: 6.00 to 7.00
6) O=C1CCc2cc(OCCN(CCO)Cc3cccnc3)ccc2N1 [ALDHI-3005]: 4.00 to 5.00
7) O=C1CCc2cc(OCCN3CCCC3c3ccccn3)ccc2N1 (centres unmarked) [ALDHI-2006]: 5.00 to 6.00
8) O=C1CCc2cc(OCCN3CCCC3c3ccncc3)ccc2N1 (centres unmarked) [ALDHI-2004]: 4.00 to 5.00
9) C[C@@H](c1ccccc1)N(CCO)CCOc1ccc2c(c1)CCC(=O)N2 [ALDHI-3007]: 5.00 to 6.00
10) O=C1CCc2cc(OCCN3CC(F)(F)CC3c3cccc(F)c3)ccc2N1 (centres unmarked) [ALDHI-2053]: 5.00 to 6.00
11) O=C1CSc2cc(OCCN3CCCC3c3cccnc3)ccc2N1 (centres unmarked) [ALDHI-2028]: ≤ 4.00
12) CC1Cc2cc(OCCN3CCCC3c3cccc(F)c3)ccc2NC1=O (centres unmarked) [ALDHI-2048]: 6.00 to 7.00
13) O=C1CCc2cc(OCCN3CCCC3c3cccc(F)c3)c(F)cc2N1 (centres unmarked) [ALDHI-2050]: 5.00 to 6.00
14) O=C1CCc2cc(OCCn3nccc3-c3cccc(F)c3)ccc2N1 [ALDHI-2023]: > 7.00
15) O=C1CCc2cc(NC(=O)c3scnc3-c3ccc(F)cc3)ccc2N1 [ALDHI-1017]: 5.00 to 6.00
16) Cc1ccc(C2CCCN2CCOc2ccc3c(c2)CCC(=O)N3)cn1 (centres unmarked) [ALDHI-2030]: 4.00 to 5.00
17) CN(CCOc1ccc2c(c1)CCC(=O)N2)Cc1cccnc1 [ALDHI-3010]: 4.00 to 5.00
18) O=C1COc2cc(NC(=O)c3scnc3-c3cccc(F)c3)ccc2N1 [ALDHI-1016]: 5.00 to 6.00
19) Cc1cccc(-c2ncsc2C(=O)Nc2ccc3c(c2)CCC(=O)N3)c1 [ALDHI-1013]: 5.00 to 6.00
20) O=C1CCc2cc(NC(=O)c3ncsc3-c3cccc(F)c3)ccc2N1 [ALDHI-1014]: 4.00 to 5.00
21) O=C1CCc2cc(OCCN3CCCC3c3cccc(F)c3)ccc2N1 (centres unmarked) [ALDHI-2001]: 6.00 to 7.00
22) O=C1CCc2cc(OCCN3CCCC3c3ccc(F)cc3)ccc2N1 (centres unmarked) [ALDHI-2003]: 5.00 to 6.00
23) O=C1CCc2cc(NC(=O)c3sc(N4CC(O)C4)nc3-c3cccc(F)c3)ccc2N1 [ALDHI-1004]: ≤ 4.00
24) O=C1CCc2cc(OCCN3CC(F)CC3c3cccc(F)c3)ccc2N1 (centres unmarked) [ALDHI-2052]: 6.00 to 7.00
25) O=C1CCc2cc(OCCN3CCC3c3cccc(F)c3)ccc2N1 (centres unmarked) [ALDHI-2021]: 5.00 to 6.00
26) Cc1cccc(C2CCCN2CCOc2ccc3c(c2)CCC(=O)N3)c1 (centres unmarked) [ALDHI-2011]: 4.00 to 5.00
27) O=C1CCc2cc(OCCN3CC(O)CC3c3cccc(F)c3)ccc2N1 (mixture of isomers) [ALDHI-2035]: 6.00 to 7.00
28) Cc1ccccc1C1CCCN1CCOc1ccc2c(c1)CCC(=O)N2 (centres unmarked) [ALDHI-2012]: ≤ 4.00
29) O=C1CCc2cc(OCCN3CCCC3c3ccccc3)ccc2N1 (centres unmarked) [ALDHI-2019]: 6.00 to 7.00
30) CCC1Oc2cc(OCCN3CCCC3c3cccc(F)c3)ccc2NC1=O (centres unmarked) [ALDHI-2045]: 5.00 to 6.00
31) O=C1CSc2cc(OCCN3CCCC3c3ccccn3)ccc2N1 (centres unmarked) [ALDHI-2027]: 4.00 to 5.00
32) O=C1CCc2cc(NC(=O)c3ocnc3-c3cccc(F)c3)ccc2N1 [ALDHI-1019]: ≤ 4.00
33) O=C1CCc2cc(OCCN3CCCC3c3ccsc3)ccc2N1 (centres unmarked) [ALDHI-2014]: ≤ 4.00
34) O=C1CCCc2cc(OCCN3CCCC3c3cccc(F)c3)ccc2N1 (centres unmarked) [ALDHI-2020]: 5.00 to 6.00
35) O=C1COc2cc(OCCN3CCCC3c3cccc(F)c3)ccc2N1 (centres unmarked) [ALDHI-2009]: 5.00 to 6.00

Reference for the values: patent US20240174634A1
